Origin of values: ChEMBL document CHEMBL1275558

Below, each entry is listed with its recorded selectivity ratio.
- ASSAY EXPLANATION: Therapeutic index, ration of TD50 for human foreskin fibroblast cell infected with Toxoplasma gondii to ID 50 for Toxoplasma gondii
- Assay type: cell-based
- EXPERIMENTAL CONDITIONS: read-out: TI
ENDPOINT LABEL: selectivity ratio

INSERT INTO measurements (compound, reported_result) VALUES
  ('CC(=O)N1C(=O)/C(=C2\Nc3ccccc3C2=O)c2ccccc21', '> 16'),
  ('Cc1ccc2c(c1)C(=O)c1nc3ccccc3c(=O)n1-2', '> 6100'),
  ('O=Nc1c(-c2c(O)[nH]c3ccccc23)[nH]c2ccccc12 [INDIRUBIN-3-MONOXIME]', '> 139'),
  ('O=C1C(c2c(O)[nH]c3ccc(Br)cc23)=Nc2ccccc21', '> 19'),
  ('O=Nc1c(-c2c(O)[nH]c3ccc([N+](=O)[O-])cc23)[nH]c2ccccc12', 25);
